All values here come from patent US20170165266A1.

- Test system: IgG production
- test.method.notes: IgG production in B cell differentiation assay (ELISA)
- Format: cell-based
- assay.context: Homo sapiens, SLE (n = 3)
observation.type: IC50 (nM)

molecule | reading
Cc1nc2cccc(N)c2c(=O)n1C1CCC(=O)NC1=O (stereo not shown) | 46

---

- Tested on: MIP-1β
- test.method.notes: MIP-1β production in LPS-stimulated hPBMC (Luminex)
- Format: cell-based
- assay.context: Homo sapiens; LPS 1 ng/ml, 18 hours
- Description: 50 ml human buffy coat was aliquoted 25 ml each into two 50 ml conical tubes and 25 ml sterile HBSS was added to each conical tube. The tubes were gently mixed by inverting. […] Cell pellet was resuspended with 20 ml RPMI complete medium (RPMI/5% human sera/1× pen/strep/glut) and counted. […] Supernatant samples were analyzed for cytokines in multiplex format according to the manufacturer's instructions (Millipore, Billerica, Mass. 01821) using a Luminex IS100 instrument. […]
pIC50: −log10 of the molar value.

molecule | pIC50
Cc1nc2cccc(N)c2c(=O)n1C1CCC(=O)NC1=O (stereo not shown) [test compound] | < 5.00
